tested on: NCI-H522 lung; assay: NCI tumour cell line growth inhibition, 48 h
MEASURED METRIC: TGI (µM)
Numeric only. Scale: µM

compound=COc1cc2c(cc1OCCCOc1cc(-c3ccc(F)cc3)nc(C)n1)N=C[C@@H]1CCCN1C2=O observed_value=37.2

q: Give recorded TGI. O=C1/C(=C/C=C/c2ccccc2)N=C(c2ccccc2)N1C1Nc2cc3c(cc2S1)NC(N1C(=O)/C(=C/C=C/c2ccccc2)N=C1c1ccccc1)S3 (stereo not given)
a: 28.8

----------
test system: M14 melanoma; experiment: NCI tumour cell line growth inhibition, 48 h
The following compounds are shown together with reported TGI values.

compound=COc1ccc2nc(-c3cc(-c4cc(OC)c(OC)c(OC)c4)n[nH]3)[nH]c2c1 measured_metric=TGI observed_value="4.31 µM"
compound=COc1cc(NS(C)(=O)=O)ccc1Nc1c2ccc(Cl)cc2nc2c(OC)cccc12 measured_metric=TGI observed_value="1.83 µM"
compound=COC(=O)/C=C/c1ccc2c(c1)CCC2 measured_metric=TGI observed_value="> 100 µM"
compound="CCCCCCCC1(N=[N+]=[N-])C(=O)c2ccccc2N(C)C1=O (stereo unspecified)" measured_metric=TGI observed_value="> 100 µM"
compound="O=S(=O)(O)O.[NH-]C1CCCCC1[NH-].[Pt+2] (stereo unspecified)" measured_metric=TGI observed_value="> 100 µM"

Now let's try a different one.
q: Give recorded TGI. `COc1cc(N=CN(C)C)c2ncccc2c1`
a: > 100 µM

----------
test system: CCRF-CEM leukemia; assay: NCI tumour cell line growth inhibition, 48 h
MEASURED METRIC: TGI

Some molecules with recorded TGI:
molecule="CCOC(=O)C12CCCC1(O)N(NC(=O)c1ccccc1)C(C)=C2C(=O)OC (stereo not drawn)" observed_value="> 100 µM"
molecule=CN1C(=O)c2ccccc2NC(=O)c2cnn(C)c21 observed_value="> 100 µM"
molecule=Cc1ccc(NC(=O)CCC(CC(=O)C(C)(C)C)=NNC(=O)C(=O)NN)cc1C observed_value="> 100 µM"
molecule=Cn1ccnc1C(=O)/C=C/c1ccc(C(=O)Nc2ccc(Cl)cc2)cc1 observed_value="2.71 µM"
molecule="O=S1c2ccccc2N=C(c2ccc3ccccc3c2)CC1C1=CC=CCC1 (stereo not drawn)" observed_value="23.6 µM"

q: Give recorded TGI. OC12c3ccccc3C1(N1CCOCC1)CCCCC21OCCCO1 (stereo not drawn)
a: > 100 µM

q: Give recorded TGI. `CC(C)(C)OC(=O)N(O)[C@@H]1C=C[C@H](n2cnc3c(N)ncnc32)C1`
a: > 100 µM

q: Give recorded TGI. `COc1cccc(-c2cc(=O)c3cc(OC)c(OC)cc3[nH]2)c1`
a: > 100 µM

q: Give recorded TGI. COc1cc(C2c3cc4c(cc3OC(NC3CCCCC3)C2C)OCO4)cc(OC)c1OC (stereo not drawn)
a: > 100 µM

q: Give recorded TGI. C=CCCC(OCOCCOC)c1cc(C)c(O[Si](C)(C)C(C)(C)C)c(C)c1 (stereo not drawn)
a: 30.6 µM

----------
test system: MDA-MB-231 breast; assay: NCI tumour cell line growth inhibition, 48 h
MEASURED METRIC: TGI (µM)
Numeric only. Scale: µM

Some compounds with recorded TGI:
compound=CN(C)c1ccc(N2Cc3ccccc3OC3=C2C(=O)c2c(O)ccc(O)c2C3=O)cn1 target_or_test_system="MDA-MB-231 breast" measured_metric=TGI observed_value=0.745
compound=COc1ccc(CCN2C(=O)C=CC2=O)cc1OC target_or_test_system="MDA-MB-231 breast" measured_metric=TGI observed_value=28.5
compound=O=[N+]([O-])c1ccc(Br)c([N+](=O)[O-])c1 target_or_test_system="MDA-MB-231 breast" measured_metric=TGI observed_value=7.12

q: Look up and report measured TGI (MDA-MB-231 breast) for the following compound: `O=C(CN1CCN(c2ncnc3ccccc23)CC1)Nc1ccc(Cl)cc1C(=O)c1ccccc1Cl`
a: 3.62

q: Look up and report measured TGI (MDA-MB-231 breast) for the following compound: C=C1C(=O)O[C@@H]2[C@H]1C[C@@H](O)[C@H](C)[C@@](O)(C(=O)/C=C/C)[C@H]2OC(=O)C(C)CC (some centres undefined)
a: 19.6

meta.source: PubChem BioAssay (NCI)
